assay: inhibitors of TNFa-induced NFkB p65 translocation, primary screen, imaging, HUVEC, MLSMR starter and 10KST1 sets (AID 438); settings: HUVEC TNFa-induced p65 nuclear translocation; at 2 µM, 0% TNFa-plus-vehicle, 100% no-TNFa wells;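 also: compound added about 3h40 before a 20 min TNFalpha stimulation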
Calls of active or inactive are those of the source.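 The calls were made as follows: active = inhibition above 20% together with a positive visual image hit; inconclusive = visual image hit but inhibition not above 20%; inactive = no visual image hit.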
Response enum: T = active, F = inactive

Ask: Per the assay record, what outcome was assigned to CCOC(=O)C1CCN(C(=O)C2(NC(=O)Nc3ccccc3Cl)CCCCC2)CC1 ?
Reply: F

Ask: Please let me know the test result on file for Cc1cc(C)n(-c2ncnc3sc(C)c(C)c23)n1 .
Reply: F

Ask: Per the assay record, what outcome was assigned to O=c1c2c3c(sc2nc2n1CCCS2)CCCC3 ?
Reply: F

Ask: Please let me know the test result on file for Cc1ccc(-c2nc3ncccc3o2)cc1NC(=O)c1ccco1 .
Reply: F

Ask: What classification did Brc1ccc(-c2cnnc(N3CCCC3)n2)cc1 end up with in this test?
Reply: F

Ask: State the result this test recorded for O=S(=O)(/C=C/c1ccccc1)Nc1ccc2c(c1)OCO2 .
Reply: F

Ask: Hello, I am checking results. What call was entered for Cc1ccc(Cn2ncc3c(N4CCN(Cc5ccc(Cl)cc5)CC4)ncnc32)cc1 ?
Reply: T

Ask: Write down the call the test reported for this compound. Item: COCCN(Cc1cc2cc3c(cc2n2nnnc12)OCO3)C(=O)c1ccccc1F
Reply: F

Ask: Kindly provide the recorded test outcome for the following compound: O=C(NC1CC1)C1CCN(c2ccc(S(=O)(=O)N3CCOCC3)cc2)CC1
Reply: F

Ask: Hi team, can someone confirm the assay call for Cc1ccc(OCC(O)CN2C(=O)NC(C)(C)C2=O)cc1C (stereo not drawn) ?
Reply: F

Ask: Assay outcome for Cc1cc(C)n(-c2ccc3cccc(NS(C)(=O)=O)c3n2)n1 : what was it?
Reply: F

Ask: Hi, sorry to bother you, what did the test record for COc1cc(OC)cc(-c2nnc(SCC(=O)Nc3cc(C)on3)o2)c1 ?
Reply: F

Ask: Assay result, entry CN(C)CCN1C(=O)C(O)=C(C(=O)c2cc3ccccc3o2)C1c1ccc(N(C)C)cc1 (stereo not drawn) — outcome?
Reply: F

Ask: Which result was noted for this compound in the test: Cc1ccc(-c2nnc(N3CCN(C(=O)CN4C(=O)c5ccccc5C4=O)CC3)c3ccccc23)cc1
Reply: F

Ask: Name the outcome recorded for COCCSc1ccccc1C(=O)Nc1nncs1 in the assay.
Reply: F

Ask: I'd appreciate the recorded outcome for Cc1cccc2cc(CN(CC3CCCO3)C(=O)c3cnccn3)c(=O)[nH]c12 (stereo not drawn) from this test.
Reply: F

Ask: Outcome logged for COc1ccc2c(CC(=O)Nc3nnc(C4CC4)s3)coc2c1 in this assay:
Reply: F

Ask: Check the results log: what was the call for O=C(CNC1CCCCCC1)Nc1ccc(S(=O)(=O)NC2CC2)cc1 ?
Reply: F

Ask: Which result was noted for this compound in the test: COc1cc2c(cc1OC)-c1cc(Nc3ccc4c(c3)OCCO4)nc(=O)n1CC2
Reply: F

Ask: Can you look up the reported call for CCOc1ccc(C2=Nn3c(nnc3-c3ccccc3OC)SC2)cc1 for me?
Reply: T

Ask: Hi, sorry to bother you, what did the test record for CC1=C(C#N)C(=O)OC(C)(C)C1 ?
Reply: F

Ask: Outcome? O=C(CC(c1ccco1)S(=O)(=O)c1ccccc1)c1ccc(F)cc1 (stereo not drawn)
Reply: F

Ask: What outcome does the record of this test show for CC1(C)Cc2c(c(N3CCOCC3)nc3sc4c(NCc5ccco5)nnnc4c23)CS1 ?
Reply: F

* * *

experiment: inhibitors of poly I:C-induced TLR3 signaling, primary screen, cell-based, poly I:C stimulus, luciferase, 10K MLSCN set (AID 602277); conditions: HEK293-TLR3 RL24 IRF3 luciferase reporter, at 10 µM, stronger effect = higher value
Give inhibition for every item shown.
Dear colleague, please return just the value in %, with no unit written.

Ask: What does the record list as inhibition for CCOc1ccc(OCc2cccc(C(=O)N3CCCC3)c2)cc1 ?
Reply: -105

Ask: Look up inhibition: CS(=O)(=O)C1=C(O)C(=O)N(c2ccccc2)C1c1ccccc1 (stereo unspecified)
Reply: 26.4

Ask: // inhibition lookup, key: COCC(=O)Nc1c(C(=O)Nc2ccccc2OC)oc2ccccc12
Reply: 11.5

Ask: Query (compound): Cc1cccc(-c2cc3nc4c(c(N5CCOCC5)n3n2)CCCC4)c1 ; field requested: inhibition
Reply: 33.5

Ask: // query inhibition value for entry Cn1c(NC(=O)c2ccccc2NC(=O)C(C)(C)C)nc2ccccc21
Reply: -25.9

Ask: Need inhibition, item O=c1[nH]cnc2c1C1(CCCC1)Cc1ccccc1-2
Reply: 35.4

Ask: Find the recorded inhibition belonging to COc1ccc(C(C)=O)c(OC(=O)c2ccc(OC)c(OC)c2)c1 and report it.
Reply: 22.8

Ask: Return reported inhibition; argument: CC(=O)c1cnc2cc(-c3ccccc3)nn2c1C
Reply: -115

Ask: Can you look up the measured inhibition of N#CC1=C(N)N(c2ccc(Oc3ccccc3)cc2)C(=O)C1 for me?
Reply: -5.96

Ask: Reported inhibition, compound COc1ccc(OC)c(S(=O)(=O)Nc2ccccc2SC)c1 : ____
Reply: 24

Ask: # lookup: inhibition of CCC1Oc2ccc(C)cc2N(CC(=O)N(Cc2cccnc2)Cc2ccc(C)o2)C1=O (stereo unspecified)
Reply: 24.3

* * *

Provide the recorded cell count for the entries that follow.
experiment: inhibitors of TNFa-induced NFkB p65 translocation, primary screen, imaging, HUVEC, MLSMR starter and 10KST1 sets (AID 438); settings: HUVEC TNFa-induced p65 nuclear translocation; measured here: nuclei count (cytotoxicity indicator), at 2.08 µM;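 also: compound added about 3h40 before a 20 min TNFalpha stimulation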

Ask: Endpoint output: cell count of Cc1cc(C)cc(NC(=O)C2CCCN(S(=O)(=O)c3cnc[nH]3)C2)c1 (stereo not given) . Value?
Reply: 595

Ask: So what does the record say about cell count for CCOC(=O)c1oc2cccc(OC(C)=O)c2c1C ?
Reply: 306

Ask: Which cell count value is on record for CCOC(=O)c1ccc(S(=O)(=O)NC2CCCCCCC2)n1C ?
Reply: 583

Ask: What value of measured cell count is listed for Cc1cccc(-n2ncc3c(NCc4cccnc4)ncnc32)c1 ?
Reply: 670

Ask: Query (molecule): CCCn1c(O)c(CN2CCCC(C)C2)c(C)c(C#N)c1=O (stereo not given) ; field requested: cell count
Reply: 673

Ask: cell count lookup needed for O=C(NCc1ccco1)c1cccn2c(=O)c3sccc3nc12 , thanks.
Reply: 452

Ask: Can you share its cell count? I mean this molecule: CCOC(=O)C1=C(C)N=C2SCCC(=O)N2C1c1cc(Br)ccc1OC (stereo not given)
Reply: 466

Ask: Item COC(=O)CC1=C(C(=O)OC)C(c2cccc(OCC(N)=O)c2)C(C#N)=C(N)O1 (stereo not given) has what recorded cell count?
Reply: 723

Ask: Which cell count is listed for CC(=O)Nc1ccc(NCC(O)COc2ccccc2)cc1 (stereo not given) ?
Reply: 374

Ask: Entry COc1ccc(N2CCN(Cc3nc4ccccc4c(=O)[nH]3)CC2)cc1 : reported cell count = ?
Reply: 683

Ask: May I ask what cell count has been recorded for CCC1CCCCN1C(=O)CSc1nnc(-c2ccc(OC)cc2)o1 (stereo not given) ?
Reply: 599

Ask: Which cell count value is on record for Cc1cc(=O)oc(C)c1C(=O)n1nc(C)c2c1C[C@@H]1[C@H]2C1(C)C ?
Reply: 553

Ask: Can you look up the measured cell count of CCOc1ccccc1C(=O)NC(C)c1ccc2c(c1)OCO2 (stereo not given) for me?
Reply: 368

Ask: May I ask what cell count has been recorded for O=C(CSc1nnnn1-c1ccc(Cl)cc1)NC(=O)Nc1ccc2c(c1)OCCO2 ?
Reply: 336

Ask: May I ask what cell count has been recorded for Cc1ccc(Cn2c(SCCN3CCCCC3)nc3c2c(=O)[nH]c(=O)n3C)cc1 ?
Reply: 575

Ask: GET /values?readout=cell count&item= CC1(CC(=O)O)C(=O)N=C2C=CC=CN21 (stereo not given)
Reply: 489

Ask: Given Cc1ccc(-c2noc(CCC(=O)N3CCN(c4cccc(C(F)(F)F)c4)CC3)n2)cc1 , state its recorded cell count.
Reply: 647

Ask: Any idea what its cell count is? The molecule is Cc1ccc(S(=O)(=O)NCC(=O)N(CC(=O)NC2CCCCC2)Cc2ccco2)cc1
Reply: 294

Ask: Look at this molecule and give its reported cell count. Cc1csc2nc(CSc3ccc(Cl)cc3)cn12
Reply: 41

Ask: Item under review: Cc1ccc(C(=O)NCC(C)(C)O)cc1 . Reported cell count?
Reply: 554

Ask: Which cell count is reported for this molecule? O=C(O)CCn1[nH]c(=O)ccc1=O
Reply: 172

Ask: Param item = N#CC1=C(SCC(=O)c2cc3ccccc3oc2=O)NC(=O)C(C#N)C12CCCC2 (stereo not given) ; retrieve measured cell count.
Reply: 639

Ask: Look up cell count for this molecule: C=C(Cl)COC(=O)[C@H]1C2C=CC(C2)C1C(=O)O (stereo not given in full)
Reply: 347

Ask: Please give the measured cell count for this molecule: O=C(c1cc2ccccc2oc1=O)N1CCN(c2ccc(N3CCOCC3)nn2)CC1
Reply: 490

Ask: Which cell count value belongs to Cc1ccc(CNC(=O)c2cc3c(=O)n4ccccc4nc3n(CC3CCCO3)c2=N)cc1 (stereo not given) ?
Reply: 542

Ask: Need cell count, item CCCCCSc1nc(N2CCOCC2)c2c(c1C#N)CC(C)(C)OC2
Reply: 527

Ask: Request the reported cell count associated with Cc1cccnc1-n1c(CCN2C(=O)c3ccccc3C2=O)nc2ccccc2c1=O
Reply: 359

Ask: Entry CC(=O)c1cnc2cc(-c3ccccc3)nn2c1C has what cell count?
Reply: 283

Ask: Recorded cell count of CCCSc1nnc(N2C(=O)CC(c3ccsc3)C3=C2CCCC3=O)s1 (stereo not given) , please.
Reply: 640

Ask: I am curious: what cell count value has been reported for CCc1nnc(NC(=O)C2Cc3ccccc3CN2S(=O)(=O)c2cccs2)s1 (stereo not given) ?
Reply: 521

Ask: Endpoint output: cell count of COC(=O)Oc1c(Br)c(=O)oc2ccccc12 . Value?
Reply: 594

Ask: Would you kindly share the measured cell count for CN(C#N)c1nc(N2CCOCC2)nc(N2CCOCC2)n1 ?
Reply: 424

Ask: Fill in the blank: the reported cell count of CCCOc1ccc(C2/C(=C(/O)c3ccccc3)C(=O)C(=O)N2CCCN(C)C)cc1OC (stereo not given) is ____.
Reply: 399

Ask: Which cell count value belongs to C=CCSc1nc2sc(C)c(C)c2c(=O)[nH]1 ?
Reply: 589

Ask: # get_value(readout='cell count', item= O=C(Nc1cccc(-c2nnc(-c3ccccc3)o2)c1)C1CCCCC1 )
Reply: 666

Ask: Endpoint output: cell count of Clc1ccc(C2Nc3ccccc3-n3cccc32)cc1 (stereo not given) . Value?
Reply: 637

Ask: Value lookup for cell count; key = N#Cc1nc(COc2ccc(Cl)cc2)oc1N1CCN(Cc2ccccc2)CC1
Reply: 489

Ask: Look up cell count: N#CC(C#N)C(c1ccsc1)c1c(-c2ccccc2)[nH][nH]c1=O (stereo not given)
Reply: 712

Ask: Quick check: cell count of COCCn1c(SCC(=O)N2CCc3ccccc32)nc2c(c1=O)SC(C)C2 (stereo not given) ?
Reply: 499

Ask: Reported cell count for CC(CCc1ccccc1)NC(=O)C1CCCN(c2nnc(-n3cccc3)s2)C1 (stereo not given) : what is it?
Reply: 585

Ask: Given the molecule N#Cc1c(N2CCCCC2)nc(N2CCCCC2)c2c1CCN(Cc1ccccc1)C2 , what is its reported cell count?
Reply: 606

Ask: Requested field: cell count. Item: CCCOc1cccc(C2/C(=C(/O)c3ccc(F)cc3)C(=O)C(=O)N2CCN(C)C)c1 (stereo not given)
Reply: 676

Ask: Would you mind telling me what cell count value was observed for CCCCCNC(=O)C(C#N)c1nc2ccccc2nc1N1CC(C)OC(C)C1 (stereo not given) ?
Reply: 366

Ask: Param item = CN(C)c1ccnc(NCc2ccccc2)c1C#N ; retrieve measured cell count.
Reply: 286

Ask: Query (molecule): CCOC(=O)C1CCN(c2c(NCCN3CCN(c4ccccc4)CC3)c(=O)c2=O)CC1 ; field requested: cell count
Reply: 533
